Sourced from ChEMBL document CHEMBL5053549

# Target Desc: Poly [ADP-ribose] polymerase 1 (Homo sapiens, UniProt P09874)
# Sequence (P09874 whole entry): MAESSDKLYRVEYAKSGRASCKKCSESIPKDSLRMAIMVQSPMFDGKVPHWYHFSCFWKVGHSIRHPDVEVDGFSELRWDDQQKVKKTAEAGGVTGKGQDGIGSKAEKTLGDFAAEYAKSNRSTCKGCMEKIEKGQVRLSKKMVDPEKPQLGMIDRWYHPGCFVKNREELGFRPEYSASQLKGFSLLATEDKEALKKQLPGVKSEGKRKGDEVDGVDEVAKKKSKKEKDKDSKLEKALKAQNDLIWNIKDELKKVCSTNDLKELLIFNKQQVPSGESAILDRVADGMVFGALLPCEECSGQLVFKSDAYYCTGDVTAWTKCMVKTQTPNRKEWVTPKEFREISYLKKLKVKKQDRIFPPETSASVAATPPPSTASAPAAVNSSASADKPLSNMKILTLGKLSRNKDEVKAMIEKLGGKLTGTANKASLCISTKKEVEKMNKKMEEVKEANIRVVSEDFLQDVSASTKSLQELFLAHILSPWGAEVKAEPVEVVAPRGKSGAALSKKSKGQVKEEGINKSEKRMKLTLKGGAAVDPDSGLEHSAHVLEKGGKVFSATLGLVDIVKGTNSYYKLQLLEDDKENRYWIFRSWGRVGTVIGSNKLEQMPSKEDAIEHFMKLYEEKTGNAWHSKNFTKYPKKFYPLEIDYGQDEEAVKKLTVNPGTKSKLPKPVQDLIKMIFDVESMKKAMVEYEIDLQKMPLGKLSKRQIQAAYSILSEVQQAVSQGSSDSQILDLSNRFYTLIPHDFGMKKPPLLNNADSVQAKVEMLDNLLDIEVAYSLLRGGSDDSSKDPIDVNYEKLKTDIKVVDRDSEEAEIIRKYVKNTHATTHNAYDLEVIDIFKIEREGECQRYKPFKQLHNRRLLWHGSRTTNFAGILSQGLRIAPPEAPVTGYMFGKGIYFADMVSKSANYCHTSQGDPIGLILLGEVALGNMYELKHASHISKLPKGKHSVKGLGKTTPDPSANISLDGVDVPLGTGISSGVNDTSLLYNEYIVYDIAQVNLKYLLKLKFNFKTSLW
# Assay: Inhibition of PARP1 (unknown origin) incubated for 45 mins in presence of biotinylated-NAD+ by microplate reader analysis
Labelling field: enter T if recorded IC50 is less than 200 nM. Enter F if it equals or exceeds that cut-off.

Some solved entries appear below for comparison.
INSERT INTO results (compound, label_value) VALUES
  ('COc1cc(-c2nc3c(C(N)=O)cccc3[nH]2)ccc1Nc1ncc2c(n1)N(C1CCCC1)[C@H](C)C(=O)N2C', 'T'),
  ('CC[C@@H]1C(=O)N(C)c2cnc(Nc3cccc(-c4nc5c(C(N)=O)cccc5[nH]4)c3)nc2N1C1CCCC1', 'T'),
  ('CC[C@@H]1C(=O)N(C)c2cnc(Nc3ccc(C(C)c4nc5c(C(N)=O)cccc5[nH]4)cc3OC)nc2N1C1CCCC1 (stereo partly specified)', 'F'),
  ('CC[C@@H]1C(=O)N(C)c2cnc(Nc3ccc(C(=O)NCc4nc5c(C(N)=O)cccc5[nH]4)cc3OC)nc2N1C1CCCC1', 'F'),
  ('CC[C@@H]1C(=O)N(C)c2cnc(Nc3ccc(-c4nc5c(C(N)=O)cccc5[nH]4)cc3OC)nc2N1Cc1ccccc1', 'F');

Could you now look at the following compound, please?
query: Record CC[C@@H]1C(=O)N(C)c2cnc(Nc3ccc(-c4nc5c(C(N)=O)cccc5[nH]4)cc3OC)nc2N1Cc1ccc(C)s1 : is its IC50 strictly below 200 nM?
result: F

====

Hi there, I'd appreciate the recorded inhibition for every entry that follows.
# Target Desc: Bromodomain-containing protein 4 (Homo sapiens)
# Assay: Inhibition of recombinant BRD4 (unknown origin) at 0.5 uM incubated for 120 mins by TR-FRET assay relative to control
Give bare numbers, in %.

INSERT INTO results (smiles_entry, value_kind, reported_value) VALUES
  ('CC[C@@H]1C(=O)N(C)c2cnc(Nc3ccc(-c4nc5c(C(N)=O)cccc5[nH]4)cc3OC)nc2N1Cc1ccccc1', 'inhibition', 21),
  ('CC[C@@H]1C(=O)N(C)c2cnc(Nc3ccc(-c4nc5c(C(N)=O)cccc5[nH]4)cc3OC(C)C)nc2N1C1CCCC1', 'inhibition', 75),
  ('CC[C@@H]1C(=O)N(C)c2cnc(Nc3ccc(-c4nc5c(C(N)=O)cccc5[nH]4)cc3OC)nc2N1Cc1ccc(OC)cc1OC', 'inhibition', 17);

Please examine the following record next.
query: Indicate the recorded inhibition value for this compound: CC[C@@H]1C(=O)N(C)c2cnc(Nc3ccc(-c4nc5c(C(N)=O)cccc5[nH]4)cc3OC)nc2N1Cc1ccc(C)s1
result: 52
